Experiment: Selectivity index, ratio of CC50 for human HepG2 cells to EC50 for Coxsackievirus B5 infected in human HepG2 cells
Type: toxicity, cell-based
Conditions: read-out: Ratio CC50/EC50
ASSAY ENDPOINT: selectivity ratio
Number only, please.

Study these solved cases before continuing.
Nc1sc2c(c1-c1nc3cc(Cl)ccc3s1)CCCC2	26.7
Oc1ccccc1/C=N/c1sc2c(c1-c1nc3ccccc3s1)CCC2	13.8
Nc1sc2c(c1-c1nc3ccccc3s1)CCCC2	11.9

*Q* Look up selectivity ratio: Fc1ccc(/C=N/c2sc3c(c2-c2nc4ccccc4s2)CCCC3)cc1
*A* 33.2

*Q* Look up selectivity ratio: O=[N+]([O-])c1ccccc1/C=N/c1sc2c(c1-c1nc3ccccc3s1)CCCC2
*A* 35

*Q* Look up selectivity ratio: Nc1sc2c(c1-c1nc3cc(Cl)ccc3s1)CCC2
*A* 10.4

###

Test: Cytotoxicity against human HeLa cells after 72 hrs by MTT assay
Type: cell-based
Field 'label' (enum: T / F). Set to T when CC50 at 72 h is strictly under 400 µg/mL; else F.

Solved cases (5 shown):
C(=N\c1sc2c(c1-c1nc3ccccc3s1)CCCC2)/c1ccc2c(c1)OCO2	F
O=[N+]([O-])c1ccc(/C=N/c2sc3c(c2-c2nc4ccccc4s2)CCCC3)cc1	T
Nc1sc2c(c1-c1nc3cc(Cl)ccc3s1)CCC2	T
Clc1ccc(/C=N/c2sc3c(c2-c2nc4ccccc4s2)CCC3)c(Cl)c1	T
C(=N\c1sc2c(c1-c1nc3ccccc3s1)CCCC2)/c1ccccc1	T

*Q* Lab note: confirm whether the reported CC50 at 72 h for this molecule is below 400 µg/mL, equality not counting. molecule: FC(F)(F)c1ccc(/C=N/c2sc3c(c2-c2nc4ccccc4s2)CCCC3)cc1
*A* T

###

Assay: Selectivity index, ratio of CC50 for human HeLa cells to EC50 for Adenovirus type 7 infected in human HeLa cells
Type: toxicity, cell-based
Conditions: read-out: Ratio CC50/EC50
ASSAY ENDPOINT: selectivity ratio

Study these solved cases before continuing.
Oc1ccccc1/C=N/c1sc2c(c1-c1nc3ccccc3s1)CCC2	9.6
NC(=O)c1ncn([C@@H]2O[C@H](CO)[C@@H](O)[C@H]2O)n1	> 15
Oc1ccccc1/C=N/c1sc2c(c1-c1nc3ccccc3s1)CCCC2	11.1
Nc1sc2c(c1-c1nc3cc(Cl)ccc3s1)CCC2	7.6
Fc1ccc(/C=N/c2sc3c(c2-c2nc4ccccc4s2)CCCC3)cc1	13.1

*Q* Look up selectivity ratio: Nc1sc2c(c1-c1nc3cc(Cl)ccc3s1)CCCC2
*A* 20.9

*Q* Look up selectivity ratio: C(=N\c1sc2c(c1-c1nc3ccccc3s1)CCCC2)/c1ccccc1
*A* 26.5

###

Test: Cytotoxicity against human HepG2 cells after 72 hrs by MTT assay
Type: cell-based
ASSAY ENDPOINT: CC50 at 72 h (µg/mL)
Answer with a number only, understood to be in µg/mL.

Study these solved cases before continuing.
COc1cc(/C=N/c2sc3c(c2-c2nc4ccccc4s2)CCCC3)cc(OC)c1OC	301
C(=N\c1sc2c(c1-c1nc3ccccc3s1)CCCC2)/c1ccccc1	308
Fc1ccccc1/C=N/c1sc2c(c1-c1nc3ccccc3s1)CCCC2	398

*Q* Look up CC50 at 72 h: Clc1ccccc1/C=N/c1sc2c(c1-c1nc3ccccc3s1)CCC2
*A* 180

*Q* Look up CC50 at 72 h: C(=N\c1sc2c(c1-c1nc3ccccc3s1)CCC2)/c1ccc2c(c1)OCO2
*A* 356
